Numbers sourced from patent US20200223839A1.

Tested on: MDA-MB-468 cell line
Assay: Anti-tumor activity against MDA-MB-468 cell line (CCK-8 test)
Format: cell-based
Conditions: Homo sapiens, MDA-MB-468, 72 h
property: IC50 (nM)

Field: example entries. Status: answers known.
| molecule | assaySystem | property | unitsText | recordedNumber |
| --- | --- | --- | --- | --- |
| CCNc1ccc(S(=O)(=O)Nc2nc3ccccc3nc2Nc2ccc3nsnc3c2)cc1F [Compound 10] | MDA-MB-468 cell line | IC50 | nM | 7090 |
| Cc1ccc(S(=O)(=O)Nc2nc3ccccc3nc2Nc2ccc3nsnc3c2)cc1 [Ref. 1, reference compound] | MDA-MB-468 cell line | IC50 | nM | 2670 |

(P) O=S(=O)(Nc1nc2ccccc2nc1Nc1ccc2nsnc2c1)c1ccc(F)c(F)c1 [Compound 7]
(Q) COc1ccc(S(=O)(=O)Nc2nc3ccccc3nc2Nc2ccc3nsnc3c2)cc1F [Compound 9]
(R) O=S(=O)(Nc1nc2ccccc2nc1Nc1ccc2nsnc2c1)c1ccc(Br)c(F)c1 [Compound 8]
Parameters: sort_field (IC50), sort_dir (desc). Response field: labels, in requested order.
Q, R, P
(Q: 1400 nM, R: 811 nM, P: 469 nM)

(A) Cc1ccc(S(=O)(=O)Nc2nc3ccccc3nc2Nc2ccc3nsnc3c2)cc1F [Compound 4f]
(B) COc1ccc(Cl)c(Nc2nc3ccccc3nc2NS(=O)(=O)c2cccc(NC(=O)C(C)(C)N)c2)c1 [Ref. 2, reference compound]
Of the pair A and B , name the member with the lesser recorded IC50. Your answer should be the label attached to the chosen record.
A
(A: 912 nM, B: 4910 nM)

###

Tested on: NCI-H446
Experiment: Cytotoxicity assay by the CTG method, NCI-H446
Assay type: cell-based
Details: Homo sapiens, NCI-H446, Lung cancer, 72 h
property: IC50 (µM)
Just the number in µM, nothing appended.

IC50 in this record for Cc1ccc(S(=O)(=O)Nc2nc3ccccc3nc2Nc2ccc3nsnc3c2)cc1F : 3.92

###

Test system: MDA-MB-468
Test: Cytotoxicity assay by the CTG method, MDA-MB-468
Format: cell-based
Conditions: Homo sapiens, MDA-MB-468, Breast cancer, 72 h
property: IC50 (nM)
Just the number in nM, nothing appended.

IC50 in this record for Cc1ccc(S(=O)(=O)Nc2nc3ccccc3nc2Nc2ccc3nsnc3c2)cc1F : 2490

###

Test system: A498
Assay: Cytotoxicity assay by the CTG method, A498
Format: cell-based
Settings: Homo sapiens, A498, Kidney cancer, 72 h
property: pIC50
Give only the number. pIC50 is defined as minus log10 of concentration in molar units.

pIC50 in this record for Cc1ccc(S(=O)(=O)Nc2nc3ccccc3nc2Nc2ccc3nsnc3c2)cc1F : 5.43

###

Test system: BT-474
Experiment: Cytotoxicity assay by the CTG method, BT-474
Format: cell-based
Details: Homo sapiens, BT-474, Breast cancer, 72 h
property: pIC50
Give only the number. pIC50 is defined as minus log10 of concentration in molar units.

pIC50 in this record for Cc1ccc(S(=O)(=O)Nc2nc3ccccc3nc2Nc2ccc3nsnc3c2)cc1F : 5.15

###

Test system: CaKi-1
Assay: Cytotoxicity assay by the CTG method, CaKi-1
Type: cell-based
Conditions: Homo sapiens, CaKi-1, Kidney cancer, 72 h
property: IC50 (µM)
Just the number in µM, nothing appended.

IC50 in this record for Cc1ccc(S(=O)(=O)Nc2nc3ccccc3nc2Nc2ccc3nsnc3c2)cc1F : 13
